Experiment: Nrf2 qHTS screen for inhibitors; further: nearly all actives have a fitted effect of over 60% in size
Settings: A549 ARE-Fluc reporter, luciferase luminescence, 18-24 h; series mostly up to 46 µM
In all, about 360,000 compounds went through this assay and about 7,500 (2.1%) were called active. Not shown: some 20% with an inconclusive outcome. The call rests on the fitted dose curve; in most records, active means well fitted inhibition curve with a large enough effect; inconclusive means small, poorly fitted or top-dose-only effect, or effect the other way; inactive means flat fitted curve, though single readings scatter. Many of the other results were omitted from the sample, so actives are more common in it than they were.
Bench note: report the call from 1 = active, -1 = inactive

molecule	classification
Cc1ccccc1NC(=O)c1ccccc1NS(=O)(=O)c1cccc2cccnc12	-1
Cc1[nH]c(=O)c(C(=O)/C=C/c2ccccc2)c2c1CCCC2	1
COc1cc(/C=N/NC(=O)Nc2ccccc2)ccc1OCCOc1ccccc1C	1
O=C(Nc1nnc(SCc2ccc(Cl)cc2Cl)s1)C1COc2ccccc2O1 (stereo unspecified)	-1
COC(=O)CN(C(=S)Nc1ccc(Cl)cc1)C1CC(=O)N(c2ccc(OC)cc2)C1=O (stereo unspecified)	-1
O=C(/C=C/c1cccc(C(F)(F)F)c1)N1CCN(c2ccccn2)CC1	1
Cc1ccc(CN(C(=O)COc2ccc(Cl)cc2C)C2CCS(=O)(=O)C2)o1 (stereo unspecified)	-1
CCOc1ccc(N2C(=O)CC(N(O)c3ccccc3)C2=O)cc1 (stereo unspecified)	-1
O=[N+]([O-])c1cccc2ncccc12	-1
O=C(CCn1c(=O)[nH]c2ccccc2c1=O)NCCCN1CCN(c2cccc(Cl)c2)CC1	-1

Continue with the molecule presented below.
Inquiry: Short answer needed: outcome of this test for O=C(C(Cl)Cl)N1CCN(c2ccccn2)CC1 ?
Reply text: -1

###

Assay: Nrf2 qHTS screen for inhibitors; further: nearly all actives have a fitted effect of over 60% in size; further: potency means the concentration at half of the fitted maximal effect
Details: A549 ARE-Fluc reporter, luciferase luminescence, 18-24 h; series mostly up to 46 µM
Screen size: about 360,000 compounds; about 7,500 (2.1%) were called active. Roughly 20% stayed inconclusive and do not appear here. What follows is part of a selection rich in actives, with near analogues and random picks from the rest.
parameter: Potency

COc1ccccc1C(=O)Nc1ccc(OCc2nnc3c4ccccc4c(C)nn23)cc1 9.2 µM (active)
COc1ccccc1C(=O)Nc1ccccc1C(=O)Nc1ccccc1 inactive
COc1ccc(NC(=O)CN2CCCN(Cc3ccccc3)S2(=O)=O)cc1 inactive
CCCCCc1ccc(-c2ccc(OCC)cc2)nc1 0.366 µM (active)
CCCCCc1ccc(-c2cn(Cc3ccc4ccccc4c3)nn2)cc1 inactive
Cc1ccc(C)c(Cn2c(C)c(CNCc3ccc(F)cc3)c(C(=O)O)c2C)c1 inactive

molecule CCOc1ccc(CCNC(=O)c2cc3c(=O)n(C)c4ccccc4c3n2C)cc1 , Potency observed: inactive

molecule Cc1ccc(C)n1-c1nnc(N2CCC(C(=O)NCc3ccc(F)cc3)CC2)s1 , Potency observed: inactive

molecule CCCCN(C(=O)CSCc1ccc(C)cc1)c1c(N)n(Cc2ccccc2)c(=O)[nH]c1=O , Potency observed: inactive

molecule COc1ccccc1C(=O)Nc1c(C(=O)Nc2ccc(C)cc2)oc2ccccc12 , Potency observed: inactive

###

Test: Nrf2 qHTS screen for inhibitors; further: nearly all actives have a fitted effect of over 60% in size
Settings: A549 ARE-Fluc reporter, luciferase luminescence, 18-24 h; series mostly up to 46 µM
The whole screen tested about 360,000 compounds, of which about 7,500 (2.1%) were called active. Inconclusive results (about 20%) are left out. The call rests on the fitted dose curve; in most records, active means well fitted inhibition curve with a large enough effect; inconclusive means small, poorly fitted or top-dose-only effect, or effect the other way; inactive means flat fitted curve, though single readings scatter. The list comes from a sample in which actives are over-represented; it also holds close analogues and randomly drawn compounds.
Bench note: report the call from active, inactive

compound	classification
OC[C@@H]1O[C@H](n2cnc3c(SCc4ccccc4)ncnc32)[C@H](O)[C@H]1O	inactive
Cc1nnc(SCC(=O)N2CCN(c3ccccc3)CC2)n1-c1ccccc1	inactive
Cc1ccc(S(=O)(=O)N2CCC(C(=O)Nc3cc(C)ccc3C)CC2)cc1	inactive

Inquiry: Short answer needed: outcome of this test for S=C(NCC1CCCO1)N1CCN(c2ccc(Cl)c(Cl)c2)CC1 (centres undefined) ?
Reply text: active

Inquiry: Short answer needed: outcome of this test for COc1cccc(-c2ccc(SCC(=O)N3CCN(c4ccccc4)CC3)nn2)c1 ?
Reply text: active

Inquiry: Short answer needed: outcome of this test for Cc1ccc(S(=O)(=O)c2nc(-c3cccs3)oc2NCc2cccnc2)cc1 ?
Reply text: inactive

Inquiry: Short answer needed: outcome of this test for COC(=O)[C@]1(Cc2ccccc2)N[C@H](CN(C)S(=O)(=O)c2ccc(F)cc2)[C@@H]2C(=O)N(Cc3ccccc3)C(=O)[C@@H]21 ?
Reply text: inactive

Inquiry: Short answer needed: outcome of this test for Cc1ccc(S(=O)(=O)N2CCN(C(=O)Cn3c(=O)cnc4ccccc43)CC2)c(C)c1 ?
Reply text: inactive

Inquiry: Short answer needed: outcome of this test for CCc1cccc(NC(=O)CN(c2ccc(C)c(C)c2)S(=O)(=O)c2ccsc2C(=O)OC)c1 ?
Reply text: inactive

###

Experiment: Nrf2 qHTS screen for inhibitors; further: nearly all actives have a fitted effect of over 60% in size
Conditions: A549 ARE-Fluc reporter, luciferase luminescence, 18-24 h; series mostly up to 46 µM
About 7,500 (2.1%) of roughly 360,000 compounds were called active. About 20% were inconclusive and are not listed. The call rests on the fitted dose curve; in most records, active means well fitted inhibition curve with a large enough effect; inconclusive means small, poorly fitted or top-dose-only effect, or effect the other way; inactive means flat fitted curve, though single readings scatter. Many of the other results were omitted from the sample, so actives are more common in it than they were.
Bench note: report the call from label 1 = active, label 0 = inactive

Please review the entries below; each comes with its answer.
molecule	classification
Cc1nn(Cc2ccccc2)c2c1C(c1ccccc1)C(C#N)=C(N)O2 (stereo unspecified)	label 0
CCOc1cc(C(=O)N(Cc2ccccc2)c2ccc(C)cc2)ccc1OCC(=O)N1CCOCC1	label 0
CCOc1ccc(CNC(=O)C2CCN(c3nnc(-n4cccc4CNc4ccc(C)cc4)s3)CC2)cc1OC	label 0
Cc1nn(-c2ccccc2)c2c1C(c1ccc(F)cc1)C(C#N)=C(N)O2 (stereo unspecified)	label 0
CC1CN(C(=O)N2CCC(C(=O)NCc3cccs3)CC2)c2ccccc2O1 (stereo unspecified)	label 0
Cc1cc(C2=NNC(=Nc3ccc(S(=O)(=O)N4CCOCC4)cc3)SC2)c(C)n1CC1CCCO1 (stereo unspecified)	label 0
COc1cc(F)c(S(=O)(=O)N2CCCN(S(=O)(=O)c3ccc(N)cc3)CC2)c(F)c1	label 0
O=C(CCC(=O)N1CCN(S(=O)(=O)c2ccc(Cl)cc2)CC1)NCc1cccc(C(F)(F)F)c1	label 1
Cc1ccc(NC2=C(c3ccc(C(F)(F)F)cc3)C(=O)c3ccccc32)cc1F	label 0
CN(C)CCNC(=O)c1ccc(Cl)c2cc3ccccc3nc12	label 1

Inquiry: Short answer needed: outcome of this test for C/C=C/c1ccc(OCC(=O)NNC(=O)CN(C)S(=O)(=O)c2ccc(C)cc2)c(OC)c1 ?
Reply text: label 0

Inquiry: Short answer needed: outcome of this test for O=C(NCCCO)c1nn(-c2ccc(Cl)cc2)nc1CO ?
Reply text: label 0

Inquiry: Short answer needed: outcome of this test for O=C(CNC1CCCCC1)NCC1(c2ccccc2)CCCC1 ?
Reply text: label 0

Inquiry: Short answer needed: outcome of this test for CCc1ccc(S(=O)(=O)c2nnn3c2nc(N2CCN(CC)CC2)c2sccc23)cc1 ?
Reply text: label 0

Inquiry: Short answer needed: outcome of this test for CN(C)CCNC(=O)Nc1cccc(Cl)c1Cl ?
Reply text: label 0

Inquiry: Short answer needed: outcome of this test for COc1cc(C(=O)NCC2(c3ccccc3)CCCC2)ccc1OC(C)C ?
Reply text: label 0

Inquiry: Short answer needed: outcome of this test for COc1ccc2cc(C3=CC(=O)C[C@H](c4ccc5c(c4)OCO5)C3)ccc2c1 ?
Reply text: label 0

Inquiry: Short answer needed: outcome of this test for O=C1C=C(c2cccc(Cl)c2)C[C@@H](c2ccc(F)cc2)C1 ?
Reply text: label 0

Inquiry: Short answer needed: outcome of this test for CC(=O)NCCNC(=O)c1cc(-c2cccc3ccccc23)nc2ccccc12 ?
Reply text: label 0

Inquiry: Short answer needed: outcome of this test for C=CCN1C=C(C(=O)c2ccccc2)C(=O)CC1 ?
Reply text: label 0

Inquiry: Short answer needed: outcome of this test for CC(C)(C)C(=O)Nc1cccc(-c2ccc[nH]2)n1 ?
Reply text: label 0

###

Assay: Nrf2 qHTS screen for inhibitors; further: nearly all actives have a fitted effect of over 60% in size
Conditions: A549 ARE-Fluc reporter, luciferase luminescence, 18-24 h; series mostly up to 46 µM
Among all 360,000 compounds or so, about 7,500 (2.1%) were called active. Roughly 20% stayed inconclusive and do not appear here. The call rests on the fitted dose curve; in most records, active means well fitted inhibition curve with a large enough effect; inconclusive means small, poorly fitted or top-dose-only effect, or effect the other way; inactive means flat fitted curve, though single readings scatter. The full list was thinned out, with actives kept by preference.
Bench note: report the call from active, inactive

Please review the entries below; each comes with its answer.
compound	classification
COc1ccc(C(=O)CSc2nnnn2C)c(OC)c1	inactive
Cc1ccc(Nc2c(-c3ccc(Cl)cc3)nc3sccn23)c(C)c1	inactive
CCCN(C(=O)Cn1cc(S(=O)(=O)N2CCN(c3ccccc3F)CC2)c2ccccc2c1=O)c1cccc(C)c1	inactive
COc1ccc(CSc2nnnn2-c2ccc(O)cc2)cc1F	active
CC[C@]12c3[nH]c4cc(CCC(=O)N(C)C)ccc4c3CCN1C(=O)[C@@H](CC(=O)NCC13CC4CC(CC(C4)C1)C3)C[C@@H]2C(=O)N1CCN(C(=O)C2CC2)CC1	inactive
O=c1[nH]c(N2CCN(Cc3ccc4c(c3)OCO4)CC2)nc2c1CCCC2	inactive
COc1ccc(-n2nnnc2SCC(=O)c2ccc(OC)c(OC)c2)cc1	active
Cc1cccc(N=C2NC(=O)/C(=C/c3cn(C)c4ccccc34)S2)c1	active

Inquiry: Short answer needed: outcome of this test for COc1ccc(C2=NC(c3ccncc3)=Nc3ccc(Br)cc3N2)cc1 ?
Reply text: inactive

Inquiry: Short answer needed: outcome of this test for CC(C)(C)n1nnnc1C(c1ccc(F)cc1)N1CCN(Cc2ccc3c(c2)OCO3)CC1 (stereo unspecified) ?
Reply text: inactive
